Test system: LTD4 (contractile responses of guinea-pig trachea)
Assay: LTD4 antagonism in guinea-pig trachea (in vitro test, isolated tracheal spiral strip)
Format: cell-based
Details: Cavia porcellus, 0.5 h; test compound concentration 10^6 g/ml [sic], added 30 min prior to LTD4; isolated male guinea-pig trachea; vs paired control
Method: LTD4 antagonism in guinea-pig trachea Antagonism for LTD4 was determined in isolated male guinea-pig (300-400 g) trachea prepared as spiral strip. Tracheal preparations were suspended under 1 g tension in 10 ml organ baths containing 5 μM of indomethacin and they were incubated for 1 hour prior to used. […] LTD-induced contractions were expressed as a percentage of the maximal response to histamine. The antagonism was determined as follows: […]
Decision: inhibition at 1 µg/mL compared against 70%; not below it gives satisfied, below it gives not satisfied.

Say whether "COc1ccc(CNc2cn[nH]c(=O)c2Cl)c2ccccc12" shows inhibition at 1 µg/mL of 70% or more.
satisfied

----------
Each entry below carries its recorded inhibition at 1 µg/mL.
test system: LTD4 (contractile responses of guinea-pig trachea); assay: LTD4 antagonism in guinea-pig trachea (in vitro test, isolated tracheal spiral strip); type: cell-based; conditions: Cavia porcellus, 0.5 h; test compound concentration 10^6 g/ml [sic], added 30 min prior to LTD4; isolated male guinea-pig trachea; vs paired control
The response must be a number in % with no trailing unit.

Take a look at these entries with their results.
compound="COc1ccc(CNc2c([N+](=O)[O-])n[nH]c(=O)c2Cl)c2ccccc12 [Compound No. 30]" measurement_label="inhibition at 1 µg/mL" reported_value=50
compound="CCn1ncc(NCc2ccc3ccccc3c2)c(Br)c1=O [compound 24]" measurement_label="inhibition at 1 µg/mL" reported_value=67
compound="COc1ccc(CNc2cn[nH]c(=O)c2Br)c2ccccc12 [Compound No. 16]" measurement_label="inhibition at 1 µg/mL" reported_value=74

What value of inhibition at 1 µg/mL has been reported for the following compound? CCCCCCOc1n[nH]c(=O)c(Cl)c1NCc1cccnc1 [compound 60]
96

What value of inhibition at 1 µg/mL has been reported for the following compound? CCCCOc1n[nH]c(=O)c(Cl)c1NCc1ccc(Cl)nc1 [compound 57]
69

----------
system: LTD4 (contractile responses of guinea-pig trachea); experiment: LTD4 antagonism in guinea-pig trachea (in vitro test, isolated tracheal spiral strip); format: cell-based; conditions: Cavia porcellus, 0.5 h; test compound concentration 10^6 g/ml [sic], added 30 min prior to LTD4; isolated male guinea-pig trachea; vs paired control
Decision: inhibition at 1 µg/mL compared against 60%; not below it gives met, below it gives not met.

These solved cases illustrate the format of a correct answer.
molecule="CCn1ncc(NCc2cccc3ccccc23)c(Br)c1=O [compound 23]" answer_label="not met"
molecule="CCn1ncc(NCc2c(OC)ccc3ccccc23)c(Br)c1=O [compound 25]" answer_label="not met"
molecule="COc1ccc(CNc2c(Cl)n[nH]c(=O)c2Cl)c2ccccc12 [Compound No. 34]" answer_label=met
molecule="CCOc1n[nH]c(=O)c(Cl)c1NCc1ccc(OC)c2ccccc12 [Compound No. 31]" answer_label=met
molecule="CCCc1c(OCC(O)COc2ccc3c(=O)cc(C(=O)O)oc3c2CCC)ccc(C(C)=O)c1O (centres unmarked) [FPL-55712, reference compound]" answer_label=met

Say whether COc1ccc(CNc2c(OC(C)C)n[nH]c(=O)c2Cl)c2ccccc12 [Compound No. 32] shows inhibition at 1 µg/mL of 60% or more.
not met

Say whether CCn1nc(OC)c(NCc2ccc(OC)c3ccccc23)c(Cl)c1=O [compound 38] shows inhibition at 1 µg/mL of 60% or more.
not met

Say whether CCn1ncc(NCc2ccco2)c(Br)c1=O [Compound No. 22] shows inhibition at 1 µg/mL of 60% or more.
not met

// provenance: patent US5011839A
